Target: G3BP1 (human), Q13283
Sequence (Q13283 1-139 limits assumed): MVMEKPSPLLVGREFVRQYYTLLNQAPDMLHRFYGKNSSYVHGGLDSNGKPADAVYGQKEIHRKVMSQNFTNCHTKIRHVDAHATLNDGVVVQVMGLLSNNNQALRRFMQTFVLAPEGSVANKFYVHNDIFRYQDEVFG
Experiment: ITC at 25 °C, peptide titrated into G3BP1
measured-parameter: Kd (µM)
Record the value in µM, omitting the unit from your answer.

Record summary for LTFGDFDEHEVDALASGITFGDFDDW (modifications not checked) [G3BPi WT peptide without CPP] : reported Kd = 3.6
